Values from patent US20260242478A1

Measured Phage binding ELISA signal, Anti-PSMA Fab with PSMA antigen accompanies every entry in the list below.
Biological target: T1, 006 PSMA Fab
T1 construct: also called Anti-PSMA Fab
Assay: clonal phage ELISA on captured PSMA Fab pre-incubated with PSMA antigen as competitor, anti-M13 HRP detection;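 note: crude clonal phage supernatants tested by ELISA, wells first treated with blocking buffer plus PSMA antigen, bound phage read out via HRP-linked anti-M13 antibody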
Where no end group is shown, it is not given here.
PARAMETER: Phage binding ELISA signal, Anti-PSMA Fab with PSMA antigen

# BINDER, MEAS_VALUE
data = [
    ("VVAMCKPAWMCAGL (cysteine pairing not given here; also: fused to pIII of bacteriophage, linker and pIII sequence not given here, Clonal phage of the Peptide-180 optimization library, tested as crude phage supernatant; not shown: fused to pIII of the bacteriophage) [Phage-2844]", 0.0731),
    ("VDRWCTPPWMCDWQ (cysteine pairing not given here; also: fused to pIII of bacteriophage, linker and pIII sequence not given here, Clonal phage of the Peptide-180 optimization library, tested as crude phage supernatant; not shown: fused to pIII of the bacteriophage) [Phage-2837]", 0.0626),
    ("EPQWCIPKWMCDHM (cysteine pairing not given here; also: fused to pIII of bacteriophage, linker and pIII sequence not given here, Clonal phage of the Peptide-180 optimization library, tested as crude phage supernatant; not shown: fused to pIII of the bacteriophage) [Phage-2840]", 0.0608),
    ("PEVMCRPVWMCLGF (cysteine pairing not given here; also: fused to phage pIII, linker not given here, Clonal phage of the Peptide-180 optimization library, tested as crude phage supernatant; not shown: fused to pIII of the bacteriophage) [Phage-2842]", 0.112),
]
